Values from ChEMBL document CHEMBL5442219

Biological target: Beta-1 adrenergic receptor (Homo sapiens)
Conditions: Compound concentration 10 µM; call rule not given here
Pick from label 1 for active, label 0 for inactive when you respond.

What did the test return for c1ccc(N2CCN(Cc3nc4ccccc4[nH]3)CC2)nc1 ?
label 0

Hi team, can someone confirm the assay call for CN1C[C@H](C(=O)N[C@]2(C)O[C@@]3(O)[C@@H]4CCCN4C(=O)[C@H](Cc4ccccc4)N3C2=O)C[C@@H]2c3cccc4[nH]cc(c34)C[C@H]21 ?
label 0

Call for entry CCC(=O)NCC[C@@H]1CCc2ccc3c(c21)CCO3 :
label 0

Field: outcome | Entry: S=C(NCCCc1c[nH]cn1)NCCCN(Cc1ccc(Cl)c(Cl)c1)c1ccc(Br)cn1
label 0

Dear all, I need the recorded test outcome for CC(C)[C@H](CO)Nc1nc(Nc2cccc(Cl)c2)c2ncn(C(C)C)c2n1 , thank you.
label 0

Given NC(=O)[C@@H]1CCCN1C(=O)[C@H](Cc1c[nH]cn1)NC(=O)[C@@H]1CCC(=O)N1 , state the outcome it received in this test.
label 0

So what was the verdict on COc1ccc(CNC(=O)c2cc(-c3cncc(Cl)c3)cnc2-c2ccccn2)nc1OC in this test?
label 0

Dear all, I need the recorded test outcome for CCc1cc(C(C)=O)c(O)cc1OCCCCCC(C)(C)c1nn[nH]n1 , thank you.
label 0

Outcome logged for O=C(O)c1cc(-c2ccc(C3CCNCC3)cc2)c2ccc(-c3ccc(C(F)(F)F)cc3)cc2c1 in this assay:
label 0

Which outcome did this test record for the molecule Clc1cccc(Cl)c1NC1=NCCN1 ?
label 0

For this molecule, state the assay outcome: OC[C@H]1O[C@@H](n2cnc3c(NC4CCCC4)ncnc32)[C@H](O)[C@@H]1O
label 0

Fill in: this test's call for CN[C@@H]1CCc2[nH]c3ccc(C(N)=O)cc3c2C1 is ___
label 0

What call does the record list for CN(C)C(=O)N[C@H]1CC[C@H](CCN2CCN(c3cccc(Cl)c3Cl)CC2)CC1 ?
label 1

Which outcome did this test record for the molecule CC1=C2C[C@H]3[C@@H](CC=C4C[C@@H](O)CC[C@@]43C)[C@@H]2CC[C@]12O[C@@H]1C[C@H](C)CN[C@H]1[C@H]2C ?
label 0

What call does the record list for C[N+]1(C)[C@@H]2C[C@@H](OC(=O)C(O)(c3cccs3)c3cccs3)C[C@H]1[C@@H]1O[C@@H]12 ?
label 0

Record lookup: outcome of this test for Oc1ccc2c3c1O[C@H]1c4[nH]c5c(c4C[C@@]4(O)[C@@H](C2)N(CC2CC2)CC[C@]314)C[C@@]1(O)[C@H]2Cc3ccc(O)c4c3[C@@]1(CCN2CC1CC1)[C@H]5O4 ?
label 0

// outcome(item) with item = CC(C)NCC(O)COc1cccc2[nH]ccc12 (stereo unspecified)
label 1

What call does the record list for CC(C)(N)C(=O)N[C@H](COCc1ccccc1)C(=O)N1CCC2(CC1)CN(S(C)(=O)=O)c1ccccc12 ?
label 0

Given C[C@@H](NCCc1ccc(O)cc1)[C@@H](O)c1ccc(O)cc1 (relative stereo) , state the outcome it received in this test.
label 0

Per the records of this test, what outcome belongs to O=C1N/C(=N/c2ccccc2F)S/C1=C\c1ccc(C(=O)O)cc1 ?
label 0

Any idea what this test logged for CCCCN(CC)c1nc(C)nc2c1c(C)cn2-c1c(C)cc(C)cc1C ?
label 0

Record lookup: outcome of this test for CCc1cc2c(cc1CC)CC(NC[C@H](O)c1ccc(O)c3[nH]c(=O)ccc13)C2 ?
label 1

State the result this test recorded for O=S1(=O)c2cccc3cccc(c23)N1CCCN1CCN(c2ccc(F)cc2)CC1 .
label 0

// param item: COc1cc2nc(N3CCN(C(=O)c4ccco4)CC3)nc(N)c2cc1OC ; yields the recorded call
label 0

Please state the recorded outcome for this molecule: Cc1ccccc1C(=O)Nc1ccc(C(=O)N2CCCC(O)c3cc(Cl)ccc32)c(C)c1 (stereo unspecified)
label 0

Each molecule tested received a call. Report the one for COC(=O)C1=C(C)NC(C)=C(C(=O)OCCCN2CCC(c3ccccc3)(c3ccccc3)CC2)[C@H]1c1cccc([N+](=O)[O-])c1 .
label 0

What call does the record list for O=C(O)C1CN(Cc2ccc(-c3nc4cc(Cc5ccccc5F)ccc4s3)c(F)c2)C1 ?
label 0

Recorded test call requested for CCc1nn(CCCN2CCN(c3cccc(Cl)c3)CC2)c(=O)n1CCOc1ccccc1
label 0

Tell me the assay call for CN1CCC(C(=O)c2cccc(NC(=O)c3c(F)cc(F)cc3F)n2)CC1 please.
label 0

Which outcome did this test record for the molecule CC[C@@H]1CN2C(=O)N(C)c3nc(-c4ccccc4)[nH]c3C2=N1 ?
label 0

Query: recorded result category for Cc1ccccc1N1CCN(S(=O)(=O)C[C@]23CC[C@H](C[C@@H]2NC(=O)[C@@H](N)CCS(C)(=O)=O)C3(C)C)CC1 in this test
label 0

Any idea what this test logged for Cc1nc(-c2ccc(-c3ccc(C(=O)N4CCc5cc6c(cc54)C4(CCN(C)CC4)CO6)cc3)c(C)c2)no1 ?
label 0

Write down the call the test reported for this molecule. Item: C[C@H](Cc1cc2c(c(C(N)=O)c1)N(CCCO)CC2)NCCOc1ccccc1OCC(F)(F)F
label 0

What call does the record list for CCCCc1nc(Cl)c(CO)n1Cc1ccc(-c2ccccc2-c2nnn[nH]2)cc1 ?
label 0

Test call, this molecule: O=C(c1cc2c(cc1F)OC(c1ccc(F)cc1)(c1ccc(Cl)cc1Cl)O2)N1CCOCC1 (stereo unspecified)
label 0

Hi team, can someone confirm the assay call for CCCCN(CCCC)C(=O)CN1C[C@@H](c2ccc3c(c2)OCO3)[C@H](C(=O)O)[C@H]1c1ccc(OC)cc1 ?
label 0

====

Target: Muscarinic acetylcholine receptor M4 (Homo sapiens)
Settings: Compound concentration 10 µM
Description: PDSP Primary Binding target: CHRM4 - Compounds are tested at 10 uM concentration, plate are incubated at room temperature in the dark for 90 minutes. Reaction are stopped by vacuum filtration onto 0.3% polyethyleneimine soaked filter mats using Filtermate harvester. Scintilation cocktail is then melted onto microwave-dried filters on a hot plate and the radio activity is counted in Microbia counter.
Please respond with reported inhibition for every item in the list.
Report the value in % with no unit label.

Consider the molecule Cc1nc2sccn2c(=O)c1CCN1CCC(=C(c2ccc(F)cc2)c2ccc(F)cc2)CC1 and give its measured inhibition.
1.18

// returns reported inhibition for input Cc1c(P(=S)(c2ccccc2)c2ccccc2)n2ccccc2[n+]1C/C=C/c1ccccc1
68.4

For the molecule CCCCCCCCCCCCCCCCOC[C@H](COP(=O)([O-])OCC[N+](C)(C)C)OC(C)=O , what inhibition is on record?
-0.21

Would you mind telling me what inhibition value was observed for COC(=O)C1=C(C)NC(C)=C(C(=O)OCCCN2CCC(c3ccccc3)(c3ccccc3)CC2)[C@H]1c1cccc([N+](=O)[O-])c1 ?
24.8

Which measured inhibition value corresponds to Cc1cccc(NC(=O)N[C@@H]2N=C(c3ccccc3)c3ccccc3N(C)C2=O)c1 ?
-5.23

// inhibition lookup, key: CN1CC(=O)N=C1NC(=O)Nc1cccc(Cl)c1
-2.92

Quick one: inhibition of CC(C)NCC(O)COc1ccc(CCOCC2CC2)cc1 (centres undefined) ?
22.5

inhibition lookup needed for CCCCN(CCCC)C(=O)CN1C[C@@H](c2ccc3c(c2)OCO3)[C@H](C(=O)O)[C@H]1c1ccc(OC)cc1 , thanks.
7.9

Any idea what its inhibition is? The molecule is O=c1ccn([C@@H]2O[C@H](COP(=O)(O)OP(=O)(O)OP(=O)(O)O)[C@@H](O)[C@H]2O)c(=O)[nH]1
-4.92

====

Target: Sodium-dependent noradrenaline transporter (Homo sapiens)
Conditions: Compound concentration 10 µM
Description: PDSP Primary Binding target: SLC6A2 - Compounds are tested at 10 uM concentration, plate are incubated at room temperature in the dark for 90 minutes. Reaction are stopped by vacuum filtration onto 0.3% polyethyleneimine soaked filter mats using Filtermate harvester. Scintilation cocktail is then melted onto microwave-dried filters on a hot plate and the radio activity is counted in Microbia counter.
Property label: inhibition (%)
Report only the number, with the unit % understood.

Query: inhibition; subject: CCCCN(CC)c1nc(C)nc2c1c(C)cn2-c1c(C)cc(C)cc1C
-0.04

Record request: inhibition value, item C=CCN1C[C@H](C)N([C@H](c2ccc(C(=O)N(CC)CC)cc2)c2cccc(O)c2)C[C@H]1C
13

Form field: reported inhibition of CN(C)C(=O)N[C@H]1CC[C@H](CCN2CCN(c3cccc(Cl)c3Cl)CC2)CC1
49.7

Fill in the blank: the reported inhibition of Clc1ccc(CCCOCCCN2CCCCC2)cc1 is ____.
64.5

Given the entry N#Cc1c[nH]c2c(C(=O)N3CCN(CCc4ccc(F)cc4)CC3)cccc12 , report its measured inhibition.
71.6

Any idea what inhibition was measured for c1nc(CC2CCNCC2)c[nH]1 ?
15.7

Please look up its inhibition: c1cc(CN2CCCNCCNCCCNCC2)ccc1CN1CCCNCCNCCCNCC1
33.4

Give the measured inhibition of Clc1cccc(Cl)c1NC1=NCCN1 .
20.9

What value of inhibition has been reported for the following compound? O=C(O)CC1CCC2(CC1)CCN(c1cc(OC(F)(F)F)ccc1Cl)CC2
13.3

What does the data say about its inhibition? Entry: COC(=O)C1=C(C)NC(C)=C(C(=O)OCCCN2CCC(c3ccccc3)(c3ccccc3)CC2)[C@H]1c1cccc([N+](=O)[O-])c1
86.5

====

Biological target: UniProt P31645
Sequence (P31645 whole entry, looked up): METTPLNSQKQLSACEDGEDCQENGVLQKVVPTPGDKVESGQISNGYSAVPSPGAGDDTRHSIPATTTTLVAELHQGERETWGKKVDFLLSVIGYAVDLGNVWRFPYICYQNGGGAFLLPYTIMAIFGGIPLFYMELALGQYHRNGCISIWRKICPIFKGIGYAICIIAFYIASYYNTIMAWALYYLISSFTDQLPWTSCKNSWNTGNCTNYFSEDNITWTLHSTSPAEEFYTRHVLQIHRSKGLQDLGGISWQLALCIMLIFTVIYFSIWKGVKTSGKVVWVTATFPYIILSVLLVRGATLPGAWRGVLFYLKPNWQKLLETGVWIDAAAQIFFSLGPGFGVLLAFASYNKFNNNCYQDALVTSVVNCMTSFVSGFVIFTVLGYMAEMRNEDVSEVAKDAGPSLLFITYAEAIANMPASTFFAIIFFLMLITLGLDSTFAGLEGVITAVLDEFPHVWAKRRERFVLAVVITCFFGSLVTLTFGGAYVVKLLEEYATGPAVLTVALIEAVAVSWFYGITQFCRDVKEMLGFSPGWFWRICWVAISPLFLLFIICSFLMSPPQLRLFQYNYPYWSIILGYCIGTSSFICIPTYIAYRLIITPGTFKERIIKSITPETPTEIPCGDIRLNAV
Details: Compound concentration 10 µM
Description: PDSP Primary Binding target: SLC6A4 - Compounds are tested at 10 uM concentration, plate are incubated at room temperature in the dark for 90 minutes. Reaction are stopped by vacuum filtration onto 0.3% polyethyleneimine soaked filter mats using Filtermate harvester. Scintilation cocktail is then melted onto microwave-dried filters on a hot plate and the radio activity is counted in Microbia counter.
Property label: inhibition (%)
The reply should be a number in %, with the unit left off.

Look up inhibition for this compound: O=C(O)CC1CCC2(CC1)CCN(c1cc(OC(F)(F)F)ccc1Cl)CC2
29.8

For CCCCN1CCC(COC(=O)c2cc(Cl)c(N)c3c2OCCO3)CC1 , what is its reported inhibition?
14.6

Given the entry CNC[C@H](O)c1cccc(O)c1 , report its measured inhibition.
3.06

Form field: reported inhibition of CCc1nn(CCCN2CCN(c3cccc(Cl)c3)CC2)c(=O)n1CCOc1ccccc1
84.9

# lookup: inhibition of Cc1ccc2c(c1)c1c(n2CCc2ccc(C)nc2)CCN(C)C1
-8.68

Entry Cc1c(P(=S)(c2ccccc2)c2ccccc2)n2ccccc2[n+]1C/C=C/c1ccccc1 has what inhibition?
29.7

Request the reported inhibition associated with CN1C(=O)[C@@H](NC(=O)c2cc3ccccc3[nH]2)N=C(c2ccccc2)c2ccccc21
-8.05

State the recorded inhibition for this entry: C[C@@H](NCCCc1cccc(C(F)(F)F)c1)c1cccc2ccccc12
62.7

Recorded inhibition of COc1cccc([C@H](O)C2CCN(CCc3ccc(F)cc3)CC2)c1OC , please.
27.2

Tell me the measured inhibition of O=c1ccn([C@@H]2O[C@H](COP(=O)(O)OP(=O)(O)O)[C@@H](O)[C@H]2O)c(=O)[nH]1 , please.
21.1

Recorded inhibition for COc1cc(-n2cnc3cc(-c4ccc(Cl)cc4)sc3c2=O)ccc1OCCN1CCCC1 , please?
85.8

Given COc1ccc(NS(=O)(=O)c2sc3ccc(Cl)cc3c2C)cc1N1CCNCC1 , state its recorded inhibition.
37.7

Could you share which inhibition value was measured for Cc1ccc(O)c([C@H](CCN(C(C)C)C(C)C)c2ccccc2)c1 ?
20.8

Look up inhibition for this compound: CCCCCCCCCCCCC/C=C/[C@@H](O)[C@@H](N)COP(=O)(O)O
-0.47

So what's the measured inhibition for this one? CCCCCNC(=N)N/N=C/c1c[nH]c2ccc(OC)cc12
57.7

Report inhibition for CC[C@@H]1CN2C(=O)N(C)c3nc(-c4ccccc4)[nH]c3C2=N1 please.
-6.29

Please report the recorded inhibition for Cc1csc(NC(=O)c2cc(F)cc(Oc3cncnc3)c2)n1 .
21.2

Which inhibition is listed for CN1CCN(c2ccc(Nc3c4ccccc4nc4ccccc34)cc2)CC1 ?
87.7

Fill in the blank: the reported inhibition of CNc1nc(NCc2ccc(NS(C)(=O)=O)cc2Cl)cc(-c2ccccn2)n1 is ____.
42.1

I am curious: what inhibition value has been reported for Cc1c(F)cccc1NC(=O)Nc1ccc(Cl)c(S(=O)(=O)[C@H]2CCCNC2)c1O ?
-2.95

Query (compound): Oc1ccc2c3c1O[C@H]1c4[nH]c5c(c4C[C@@]4(O)[C@@H](C2)N(CC2CC2)CC[C@]314)C[C@@]1(O)[C@H]2Cc3ccc(O)c4c3[C@@]1(CCN2CC1CC1)[C@H]5O4 ; field requested: inhibition
-6.45

Quick one: inhibition of CCc1cc2c(cc1CC)CC(NC[C@H](O)c1ccc(O)c3[nH]c(=O)ccc13)C2 ?
52.9

# query: inhibition of entry Cc1nn(C)c(C)c1-c1cccc2c1CC[C@H](N(C)C)C2
3.62

Record request: inhibition value, item CC(C)[C@H](CO)Nc1nc(Nc2cccc(Cl)c2)c2ncn(C(C)C)c2n1
3.66

Entry under review: Cc1nc2sccn2c(=O)c1CCN1CCC(=C(c2ccc(F)cc2)c2ccc(F)cc2)CC1 . Reported inhibition?
80.8

Dear colleague, I am looking for the recorded inhibition of the following compound: C[C@H](NC[C@H](O)CP(=O)(O)CC1CCCCC1)c1ccc(Cl)c(Cl)c1
-2.56

For the compound O=C(Cc1ccc(Cl)c(Cl)c1)N1CCCC[C@H]1CN1CCCC1 , what inhibition is on record?
33.9

Would you kindly share the measured inhibition for CN1CCCC(n2nc(Cc3ccc(Cl)cc3)c3ccccc3c2=O)CC1 (stereo not given) ?
19.8

Value lookup for inhibition; key = O=C(O)C1CN(Cc2ccc(OCc3ccc(Cl)c(Cl)c3)cc2)C1
-9.84

What inhibition value was documented for this compound, CSc1ccc(C(=O)N[C@@H]2CCCC[C@@H]2NC(=O)CNC(=O)c2cc(C(F)(F)F)ccc2NC(=O)NC(C)C)cc1 ?
13.7

Given Cc1cc(NC(=O)NCCN2CCC(O)(Cc3ccccc3)CC2)c2ccccc2n1 , state its recorded inhibition.
66.3

Entry Cc1cn2cc(CC(=O)N3CCC4(CC3)CN(Cc3ccc(-n5nccn5)cc3Cl)C4)nc2s1 : reported inhibition = ?
11.6

# lookup: inhibition of COc1ccc(OC(F)(F)F)cc1CN[C@H]1CCCN[C@H]1c1ccccc1
38.8

Look up inhibition for this compound: CCCNS(=O)(=O)Nc1ncnc(OCCOc2ncc(Br)cn2)c1-c1ccc(Br)cc1
67.2

Please give the measured inhibition for this compound: COc1ccc(CNC(=O)c2cc(-c3cncc(Cl)c3)cnc2-c2ccccn2)nc1OC
23.7

Name the reported inhibition value associated with the compound CCCCN(CCCC)C(=O)CN1C[C@@H](c2ccc3c(c2)OCO3)[C@H](C(=O)O)[C@H]1c1ccc(OC)cc1
-9.18

inhibition lookup needed for Cc1ccccc1C(=O)Nc1ccc(C(=O)N2CCCC(O)c3cc(Cl)ccc32)c(C)c1 (stereo not given) , thanks.
10.7

// returns reported inhibition for input S=C(NCCCc1c[nH]cn1)NCCCN(Cc1ccc(Cl)c(Cl)c1)c1ccc(Br)cn1
95

Look at this compound and give its reported inhibition. Cc1cc(C(=O)N2Cc3cnn(C)c3Nc3ccccc32)ccc1CNC(=O)N1CCC[C@H]1C(=S)N1CCCN(C)CC1
-2.9

Quick one: inhibition of COc1cccc([C@@H](C)NCCCc2ccccc2Cl)c1 ?
26.1
